# experiment: BSK_hDFCGF_Proliferation: Cell Proliferation Assessment in the BioMAP Diversity Plus: hDFCGF Assay (AID 2283059);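 also: curves fitted for both rise and fall of signal versus DMSO baseline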
# measurement context: primary human foreskin fibroblasts
Activity calls are given as the source filed them. The calls were made as follows: active = hit-call score of the fitted dose curve at least 0.9, where 1 is the maximum; inactive = score below 0.9.
Classes used: active, inactive

| compound structure | group |
| --- | --- |
| CC(=O)OCC=C(C)CCC=C(C)CCC=C(C)C | active |
| COC(=O)c1ccc(C(=O)OC)cc1 | inactive |
| NC(=O)c1c(Cl)cccc1Cl | inactive |
| CCOC(=O)C=Cc1ccccc1 | inactive |
| CCOC(=O)CCCCCCCCC(=O)OCC | inactive |
| C=C1CC/C=C(\C)CC[C@@H]2[C@@H]1CC2(C)C | active |
| CCCCCCCCCCCCS | active |
| O=S(=O)(O)C(F)(F)C(F)(F)OC(F)(F)C(F)(F)F | inactive |
| c1ccc2c(c1)-c1ccc3ccc4cccc5cc-2c1c3c45 | inactive |
| O=C(O)C(F)(F)C(F)(F)C(F)(F)C(F)(F)C(F)(F)C(F)(F)C(F)(F)C(F)F | inactive |
| CC(=O)c1ccc(C)cc1 | inactive |
| OCCN1CCOCC1 | inactive |
| O=C(c1ccc(OCCN2CCCCC2)cc1)c1c(-c2ccc(O)cc2)sc2cc(O)ccc12 | active |

----------
# study system: Luciferin 4-monooxygenase (Photinus pyralis) (UniProt P08659)
# Sequence (P08659 whole entry, looked up): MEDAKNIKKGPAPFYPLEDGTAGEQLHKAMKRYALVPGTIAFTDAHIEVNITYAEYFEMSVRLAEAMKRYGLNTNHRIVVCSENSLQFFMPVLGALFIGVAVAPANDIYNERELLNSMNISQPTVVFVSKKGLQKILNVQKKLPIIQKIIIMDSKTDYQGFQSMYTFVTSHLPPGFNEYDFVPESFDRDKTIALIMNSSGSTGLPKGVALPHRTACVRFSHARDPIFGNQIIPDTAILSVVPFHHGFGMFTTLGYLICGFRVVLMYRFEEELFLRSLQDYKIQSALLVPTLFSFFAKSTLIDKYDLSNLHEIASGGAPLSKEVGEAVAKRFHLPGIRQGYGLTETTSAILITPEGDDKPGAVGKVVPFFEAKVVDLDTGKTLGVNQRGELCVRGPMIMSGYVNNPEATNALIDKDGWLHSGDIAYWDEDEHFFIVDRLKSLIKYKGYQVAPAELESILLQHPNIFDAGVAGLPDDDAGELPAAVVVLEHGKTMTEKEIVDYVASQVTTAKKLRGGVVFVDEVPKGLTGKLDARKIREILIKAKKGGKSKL
# experiment: CCTE_Simmons_QuantiLum_inhib_2: CCTE's Firefly Luciferase Inhibition Assay, Simmons Lab (AID 2283767)
Records with an inconclusive call do not appear. Activity calls are given as the source filed them. Rule for the calls: active = hit-call score of the fitted dose curve at least 0.9, where 1 is the maximum; inconclusive = response in the unintended direction; inactive = score below 0.9.
value kind: outcome

| compound structure | value kind | result |
| --- | --- | --- |
| CC1=CCC(=C(C)C)CC1 | outcome | inactive |
| C[C@]12CC[C@@H]3c4ccc(O)cc4CC[C@H]3[C@@H]1CC[C@@H]2O | outcome | inactive |
| CCCCCCCCCCCCOCCOS(=O)(=O)O | outcome | inactive |

----------
# experiment: ATG_Sox_CIS: Attagene CIS-FACTORIAL HepG2 Assay for human SRY-box transcription factor (SOX) (AID 2282960)
# measurement context: HepG2 Attagene cis-factorial SOX reporter, mRNA; actives raise or lower the signal
Calls of active or inactive are those of the source. Rule for the calls: active = hit-call score of the fitted dose curve at least 0.9, where 1 is the maximum; inactive = score below 0.9.

| compound | outcome |
| --- | --- |
| CC(C)Cc1ccccc1 | inactive |
| CCCCCC#CC(=O)OC | inactive |
| CC(C)(O)CCc1ccccc1 | inactive |
| CCCCCCCC1CCCC1=O (stereo not drawn) | inactive |
| CCC(=O)OCC=Cc1ccccc1 | inactive |
| O=S1(=O)CC=CC1 | inactive |
| NC(N)=NC(N)=NCCc1ccccc1 | inactive |
| CC(C)(C)c1cc(CCC(=O)OCCSCCOC(=O)CCc2cc(C(C)(C)C)c(O)c(C(C)(C)C)c2)cc(C(C)(C)C)c1O | inactive |
| CCCCCCOC(C)=O | inactive |
| OC[C@@H](O)[C@H](O)[C@@H](O)[C@@H](O)CO | inactive |
| CCCCCCCOC(C)=O | inactive |
| CN1CCc2cccc3c2[C@H]1Cc1ccc(O)c(O)c1-3 | inactive |
| CCC(C)(C)C1CCC(=O)CC1 | inactive |
| CCCO | inactive |
| C=CC(=O)OCC(CO)(COC(=O)C=C)COC(=O)C=C | inactive |
| CCCCN(CCO)CCO | inactive |
| C=C(C)C(N)=O | inactive |
| CC(C)(C)c1ccc(S)cc1 | inactive |
| C=C1CC[C@H]2O[C@]2(C)CC[C@@H]2[C@@H]1CC2(C)C | inactive |
| CCCCCCCC(=O)N(C)C | inactive |
| CC(=O)CCC=C(C)CCC=C(C)C | inactive |
| CC(CO)c1ccccc1 (stereo not drawn) | inactive |
| CC(=N[Si](C)(C)C)O[Si](C)(C)C | inactive |
| C=C(C)CCCC(C)CCO (stereo not drawn) | inactive |
| c1ccc(Cc2ccccc2)cc1 | inactive |
| CC(C)C(=O)c1ccccc1 | inactive |
| CN(C)C | inactive |
| CC(C)(C)C1CCC(O)CC1 (stereo not drawn) | inactive |
| O=C1CCCCCCCCCCCC(=O)OCCO1 | inactive |
| CC(C)=CC(=O)O | inactive |
| Cc1cccc(C)c1 | inactive |
| CCCCCCCCCCCCS | inactive |
| CCCCCCCCCCCCOC(C)=O | inactive |

----------
# experiment: BSK_3C_SRB: Viability Assessment in the BioMAP Diversity Plus: 3C Assay (AID 2283023);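 also: cells read 24 h after compound dosing; fitted both ways against DMSO so a hit may be signal rise or drop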
# measurement context: primary human endothelial cells (HUVEC)
Calls of active or inactive are those of the source. Rule for the calls: active = hit-call score of the fitted dose curve at least 0.9, where 1 is the maximum; inactive = score below 0.9.
Outcome codes: true (1) (active), false (0) (inactive)

| compound | group |
| --- | --- |
| CC(=O)c1ccc(C)cc1 | false (0) |
| CCC(=O)OCC=Cc1ccccc1 | false (0) |
| CCCCCCCC1CCCC1=O (configuration not stated) | true (1) |
| CC1=CC(C)C(C=O)C(C)C1 (configuration not stated) (tested in a mixture with another compound) | false (0) |
| O=C1OC2(c3ccc(O)cc3Oc3cc(O)ccc32)c2ccccc21 | false (0) |
| C=C(C)C(N)=O | false (0) |
| O=C(O)C(F)(F)C(F)(F)C(F)(F)C(F)(F)C(F)(F)C(F)(F)C(F)(F)C(F)F | false (0) |
| CCCCCCCCCCCCS | true (1) |
| CCCCN(CCO)CCO | false (0) |
| CCOC(=O)CCCCCCCCC(=O)OCC | false (0) |
| CCCO[Si](OCCC)(OCCC)OCCC | false (0) |
| OCCN1CCOCC1 | false (0) |
| c1ccc(OCCOc2ccccc2)cc1 | false (0) |
| O=S(=O)(O)C(F)(F)C(F)(F)OC(F)(F)C(F)(F)F | false (0) |
| c1ccc(Sc2ccccc2)cc1 | true (1) |
| CCCCCCCCCC(=O)OCC | true (1) |
| COc1ccccc1NC(=O)CC(C)=O | false (0) |
| CCOC(=O)C=Cc1ccccc1 | false (0) |
| CC(C)Cc1ccc(C(C)C(=O)O)cc1 (configuration not stated) | false (0) |
| CC1(C)[C@H](C=C(Cl)Cl)[C@H]1C(=O)OCc1cccc(Oc2ccccc2)c1 | false (0) |
| C=C1CC/C=C(\C)CC[C@@H]2[C@@H]1CC2(C)C | true (1) |
| C=CC(=O)OCC(CO)(COC(=O)C=C)COC(=O)C=C | true (1) |
| Nc1ccc(N)c([N+](=O)[O-])c1 | false (0) |
| CC(=O)CCC=C(C)CCC=C(C)C | false (0) |
| C#C[C@]1(O)CC[C@H]2[C@@H]3CCc4cc(O)ccc4[C@H]3CC[C@@]21C | true (1) |
| O=C(c1ccc(OCCN2CCCCC2)cc1)c1c(-c2ccc(O)cc2)sc2cc(O)ccc12 | true (1) |
| CC(C)(C)c1cccc(O)c1 | false (0) |

----------
# study system: human Retinoid X Receptor beta (RXRb), RXRB (gene 6257)
# experiment: ATG_RXRb_TRANS: Attagene TRANS-FACTORIAL HepG2 Assay for human Retinoid X Receptor beta (RXRb) (AID 2283013)
Records with an inconclusive call do not appear. Activity calls are given as the source filed them. Rule for the calls: active = hit-call score of the fitted dose curve at least 0.9, where 1 is the maximum; inconclusive = response in the unintended direction; inactive = score below 0.9.
value kind: AC50

| molecule | result |
| --- | --- |
| CCCCCCCCSCc1cc(C)c(O)c(CSCCCCCCCC)c1 | inactive |
| CCC=C(C)C=O | 26.6 µM (active) |
| CC1=CC[C@@H](C(C)(C)O)CC1 | inactive |
| CCCCCc1cccc(=O)o1 | inactive |
| C=C1CC[C@H]2O[C@]2(C)CC[C@@H]2[C@@H]1CC2(C)C | 100 µM (active) |
| CC(=O)CC(C)(C)C1CCCCC1 | inactive |
| CC(C)Cc1ccc(C(C)C(=O)O)cc1 (configuration not stated) | inactive |

----------
# Read-out: TIMP metallopeptidase inhibitor 1 (TIMP1), TIMP1 (gene 7076)
# experiment: BSK_MyoF_TIMP1: BioMAP Diversity Plus: MyoF Assay for TIMP metallopeptidase inhibitor 1 (TIMP1) Biomarker Activity (AID 2284269)
# measurement context: primary human lung fibroblasts
Activity calls are given as the source filed them. How the source made its calls: active means hit-call score of the fitted dose curve at least 0.9, where 1 is the maximum; inactive means score below 0.9.
Outcome codes: class 1 (active), class 0 (inactive)

| compound | group |
| --- | --- |
| c1ccc(Sc2ccccc2)cc1 | class 1 |
| C=C1CC/C=C(\C)CC[C@@H]2[C@@H]1CC2(C)C | class 1 |
| CC(C)Cc1ccc(C(C)C(=O)O)cc1 (centres undefined) | class 0 |
| NC(=O)c1c(Cl)cccc1Cl | class 0 |
| COc1ccccc1NC(=O)CC(C)=O | class 0 |
| CC(=O)OCC=C(C)CCC=C(C)CCC=C(C)C | class 0 |
| CC(=O)CCC=C(C)CCC=C(C)C | class 0 |
| O=C(O)C(F)(F)C(F)(F)C(F)(F)C(F)(F)C(F)(F)C(F)(F)C(F)(F)C(F)F | class 0 |
| OCCN1CCOCC1 | class 0 |
| CCC(=O)OCC=Cc1ccccc1 | class 0 |
| CC=CC(=O)C1=C(C)C=CCC1(C)C | class 0 |
| CC1=CC(C)C(C=O)C(C)C1 (centres undefined) (tested in a mixture with another compound) | class 0 |
| CCCCCCCCCC(=O)OCC | class 0 |
| C=C(C)C(=O)OCCC(F)(F)C(F)(F)C(F)(F)C(F)(F)C(F)(F)C(F)(F)C(F)(F)C(F)(F)F | class 0 |
